Value source: ChEMBL document CHEMBL1134236

For each of the compounds below, state its MIC.
Tested on: Staphylococcus aureus
PROTOCOL_DETAILS: Minimum inhibitory concentration against methicillin-resistant Staphylococcus aureus (MRSA) A27223 in the presence of 50% calf serum.
Type: functional
Form entry: enter the amount, then its unit.

INSERT INTO measurements (structure_smiles_string, reported_measurement) VALUES
  ('C=CCCc1cc(SCC2=C(C(=O)[O-])N3C(=O)[C@@H](NC(=O)CSc4cc(Cl)ccc4Cl)[C@H]3SC2)cc(C)[n+]1CC[C@@H](O)C(=O)O', '8 µg/mL'),
  ('Cc1cc(SCC2=C(C(=O)[O-])N3C(=O)[C@@H](NC(=O)CSc4cc(Cl)ccc4Cl)[C@H]3SC2)cc(CCC(=O)O)[n+]1CCO', '4 µg/mL');

Let us move to another entry and its MIC.
Asked: Quick one: MIC of `Cc1cc(SCC2=C(C(=O)[O-])N3C(=O)[C@@H](NC(=O)CSc4cc(Cl)ccc4Cl)[C@H]3SC2)cc(CCc2ccccc2)[n+]1CCS(=O)(=O)O` ?
Given back: 4 µg/mL
